test system: SNB-75 CNS; assay: NCI-60 one-dose screen, 48 h; details: 10 µM unless noted
Compounds without any hit were thinned out: in the full panel of roughly 83,000, 20% have a hit. The source made the active and inactive calls. The calls were made as follows: active = growth percent below 10; inactive = the rest.
Give one outcome, nothing more. List: active, inactive

Known results for molecules:
Clc1ccc2nc3nc4ccc[nH]c4cc3c2c1: inactive
CCc1nc(N)nc(N)c1C#CC(C)c1cc(-c2ccnc(C)c2)c2oc(C)nc2c1 (centres undefined): active
CCN1CCC2(CC1)NC(=O)c1c(c3ccc(Cl)c(Cl)c3n1C)C2C#N (centres undefined): inactive
COc1ccc(-c2nnc(SCC(=O)c3ccc(Cl)cc3)o2)cc1: inactive
COc1cc(Nc2cc(C)nc(N3CCN(c4ccnc5cc(Cl)ccc45)CC3)n2)cc(OC)c1: active

Input line: I'd appreciate the recorded outcome for CCCCCCN(CCCCCC)CCC(O)c1ccc2ccccc2c1 (centres undefined) from this test.
Output line: inactive

Input line: Same question, `Clc1ccc2c(NCCNc3nc(N4CCCCC4)nc4ccccc34)ccnc2c1` this time
Output line: active

Input line: Same question, `Cc1ccccc1COc1ccc(-c2ccnn2-c2ccc(Cl)cc2)cc1` this time
Output line: inactive

Input line: Same question, `COc1ccc(-n2nc(C)c3c(Oc4ccc(NC(=O)Nc5c(Cl)cccc5Cl)cc4)ncnc32)cc1` this time
Output line: inactive

Input line: Same question, `Cc1cc(N2CCN(c3ccnc4cc(Cl)ccc34)CC2)nc(N2CCOCC2)n1` this time
Output line: inactive

Input line: Same question, `CCOC(=O)c1c(C)oc2ncnc(N3CCN(C(=O)COc4ccc(SC)cc4)CC3)c12` this time
Output line: inactive

Input line: Same question, `COc1cccc(-c2nn(C(C)(C)C)cc2-c2ccnc(NCCCNS(=O)(=O)c3cccc4ccccc34)c2)c1` this time
Output line: inactive

Input line: Same question, `O=C1C=C(O)C(=O)C(CC2=C(O)C(=O)C=C(O)C2=O)=C1O` this time
Output line: inactive

* * *

test system: SK-MEL-28 melanoma; test: NCI-60 one-dose screen, 48 h; conditions: 10 µM unless noted
This is part of a sample that, as a whole, favours compounds with a hit. Of some 83,000 tested, about 20% had one in any assay. Calls of active or inactive are those of the source. Rule for the calls: active = growth percent below 10; inactive = the rest.
Give one outcome, nothing more. List: active, inactive

Known results for compounds:
Clc1ccc2c(NCCCCNc3nc(N4CCOCC4)nc4ccccc34)ccnc2c1: inactive
COc1cc2nc(N3CCCC3)nc(NCC3CCCCC3)c2cc1OC: active
CC1CCNC(C)C1 (configuration not stated): inactive
Cc1nn(-c2cc(=O)[nH]c3ccccc23)c(N)c1C#N: inactive
CC(C)(C)c1cc(C(C)(C)C)cc(S(=O)(=O)Nc2cc3ccccc3cc2C(=O)NCCN)c1: active

Input line: I'd appreciate the recorded outcome for `COc1ccc(C(=O)COc2cccc(/C=C3\CSc4ccccc4C3=O)c2)cc1` from this test.
Output line: active

Input line: Same question, `CCCn1c(=O)[nH]c(N)c([C@H]2c3ccccc3Oc3[nH]c(=O)n(CCC)c(=O)c32)c1=O` this time
Output line: inactive

Input line: Same question, `CCOC(=O)c1cc(C(=O)c2ccc(O)c(O)c2)n2ccc(-c3ccn4c(C(=O)c5ccc(O)c(O)c5)cc(C(=O)OCC)c4c3)cc12` this time
Output line: inactive

Input line: Same question, `COc1ccc(CCNc2nc3c(c(=O)n(Cc4ccc(Br)cc4)c(=O)n3C)n2C)cc1OC` this time
Output line: inactive

Input line: Same question, `OCCNc1nccc(N2CCN(c3ccnc4cc(Cl)ccc34)CC2)n1` this time
Output line: inactive

Input line: Same question, `Cc1cc(Nc2ccc(C)c(Cl)c2)n2nc(C(F)(F)F)nc2n1` this time
Output line: inactive

Input line: Same question, Cc1ccc2c(C(C[N+](=O)[O-])c3ccco3)c(-c3ccccc3)[nH]c2c1 (configuration not stated) this time
Output line: inactive

Input line: Same question, `COc1ccc(-c2n[nH]nc2-c2csc3ccccc23)cc1OC` this time
Output line: inactive

Input line: Same question, `COc1cccc(-c2nc3sccn3c2-c2ccnc(NCCNS(=O)(=O)c3ccc(F)cc3)c2)c1` this time
Output line: inactive

Input line: Same question, `C#Cc1cccc(NC(=O)c2ccccc2NC(=O)CCl)c1` this time
Output line: inactive

Input line: Same question, `O=S(=O)(Nc1ccc(I)cc1F)c1ccc(-c2cnc(C3CC3)o2)cc1` this time
Output line: inactive

Input line: Same question, Cc1ccc(C2=NN3C(C2)c2cc(Br)ccc2OC32CCN(Cc3ccccc3)CC2)o1 (configuration not stated) this time
Output line: inactive

Input line: Same question, c1csc(C2=NN3C(C2)c2ccccc2OC3c2ccncc2)c1 (configuration not stated) this time
Output line: inactive

Input line: Same question, `N#Cc1c(-c2ccc(Cl)cc2)nc(N=Nc2c(O)[nH]c3ccc(Cl)cc23)nc1N1CCOCC1` this time
Output line: inactive

Input line: Same question, `C(=C\c1nccc2c1[nH]c1ccccc12)/c1ccccc1` this time
Output line: inactive

Input line: Same question, `COc1cc(C(=O)/C=C/c2cccnc2Nc2ccc(Cl)cc2)cc(OC)c1OC` this time
Output line: active

Input line: Same question, `Cc1nn(-c2cc(=O)[nH]c3ccc(Cl)cc23)c(N)c1C#N` this time
Output line: inactive

Input line: Same question, `C=C(C)C(=O)Nc1ccc(NC(C)C)cc1` this time
Output line: inactive

Input line: Same question, CC[C@@H](C(=O)[C@@H](C)[C@@H](O)[C@H](C)[C@@H]1O[C@@H]([C@@H](CC)C(=O)O)CC[C@@H]1C)[C@H]1OC2(C=C[C@@H](O)[C@]3(CC[C@@](C)([C@H]4CC[C@](O)(CC)[C@H](C)O4)O3)O2)[C@H](C)C[C@@H]1C (some centres not stated) this time
Output line: active

Input line: Same question, `COc1cccc(Nc2nc(SC)nc(-c3cccc([N+](=O)[O-])c3)c2C#N)c1` this time
Output line: inactive

Input line: Same question, `Nc1nc2ncc(CCNc3ccc(C(=O)O)cc3)nc2c(=O)[nH]1` this time
Output line: inactive

Input line: Same question, Cc1ccc2oc(=O)cc(C3c4ccc([nH]4)C(c4cc(=O)oc5ccc(C)cc45)c4ccc([nH]4)C(c4cc(=O)oc5ccc(C)cc45)c4ccc([nH]4)C(c4cc(=O)oc5ccc(C)cc45)c4ccc3[nH]4)c2c1 (configuration not stated) this time
Output line: active

Input line: Same question, `O=C(COc1ccc(/C=C2\CSc3ccccc3C2=O)cc1)Nc1nccs1` this time
Output line: inactive

Input line: Same question, COc1cc(C2CC(=O)c3ccccc3N2)cc(OC)c1OC (configuration not stated) this time
Output line: inactive

Input line: Same question, `COc1cc2c(cc1-c1c(C)noc1C)ncc1nc(-c3ccccn3)n([C@H](C)COC(F)F)c12` this time
Output line: inactive

Input line: Same question, `Cc1ccc(-c2onc3c(=O)[nH]nc(-c4ccccc4)c23)cc1` this time
Output line: inactive

Input line: Same question, `O=C1/C(=C/c2ccc3c(c2)OCO3)SC(=S)N1CCc1ccc(O)cc1` this time
Output line: inactive

* * *

test system: NCI-H226 lung; assay: NCI-60 one-dose screen, 48 h (100 = growth as untreated, 0 = no growth, -100 = all killed); settings: 10 µM unless noted
Compounds without any hit were thinned out: in the full panel of roughly 83,000, 20% have a hit. Calls of active or inactive are those of the source. The calls were made as follows: active = growth percent below 10; inactive = the rest.
observable: growth

As a guide, the following entries are already answered.
COc1ccc(-c2cc(C(=O)N=Nc3c(O)[nH]c4ccc(Br)cc34)no2)cc1: 86.3% (inactive)
CC1C(/C=N/Nc2ccccc2)C(C#N)(C#N)C1(C#N)C#N (stereo not given): 88% (inactive)
O=C1/C(=C/c2ccc3c(c2)OCO3)SC(=S)N1CCc1ccc(O)cc1: 102% (inactive)
N#CCCN=Nc1c(O)[nH]c2ccc([N+](=O)[O-])cc12: 96% (inactive)
COc1ccc(-n2nc(C)c3c(Nc4ccc(NC(=O)Nc5c(Cl)cccc5Cl)cc4)ncnc32)cc1: 37.2% (inactive)
COc1ccc(-c2cc(NC(=O)Nc3ccc4ncsc4c3)no2)cc1: 101% (inactive)

Input line: Give NCI-H226 lung growth for `C#CCOc1ccc2ncnc(Nc3cccc(CNC(=O)C=C)c3)c2c1`
Output line: 77.3% [8.25 µM] (inactive)

Input line: Same question, `COc1ccc(-c2nc(SCC(=O)Nc3ccc(C(=O)/C=C/c4ccc(Cl)cc4)cc3)[nH]c(=O)c2C#N)cc1` this time
Output line: 96.3% (inactive)

Input line: Same question, `O=C(CCl)Oc1ccc(-c2ccccc2)c(Br)c1` this time
Output line: 96.4% (inactive)

Input line: Same question, CC1=C(O)C(=O)C(C(C#N)(C#N)C(C#N)C#N)C1 (stereo not given) this time
Output line: 96.4% (inactive)
